Consider the following compounds; for each one, report its Kd.
- tgt: Type-1 angiotensin II receptor (Bos taurus) (UniProt P25104)
- Sequence (P25104 whole entry, looked up): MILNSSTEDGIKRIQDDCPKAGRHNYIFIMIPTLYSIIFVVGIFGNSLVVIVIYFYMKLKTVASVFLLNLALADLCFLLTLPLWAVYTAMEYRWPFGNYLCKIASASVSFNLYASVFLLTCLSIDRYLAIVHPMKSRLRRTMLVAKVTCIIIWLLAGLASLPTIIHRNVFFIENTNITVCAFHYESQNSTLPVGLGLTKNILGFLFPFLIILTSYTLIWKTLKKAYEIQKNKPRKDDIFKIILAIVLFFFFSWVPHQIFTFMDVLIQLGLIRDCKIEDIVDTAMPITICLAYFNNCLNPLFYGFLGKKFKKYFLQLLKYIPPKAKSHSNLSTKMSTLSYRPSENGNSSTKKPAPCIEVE
Bridge positions count the residues as written; N and C are the ends. Square brackets hold non-standard residues; d marks the D form. Peptide text beside a SMILES is read from it. Pen = CC(C)(S)[C@H](N)C(=O)O; Sar = CNCC(=O)O

These solved cases illustrate the format of a correct answer.
{"compound": "CNCC(=O)N[C@@H](CCCNC(=N)N)C(=O)N[C@H](C(=O)N[C@@H](Cc1ccc(O)cc1)C(=O)N[C@H]1CSSC(C)(C)[C@@H](C(=O)N[C@@H](Cc2ccccc2)C(=O)O)NC(=O)[C@H](Cc2cnc[nH]2)NC1=O)C(C)C (H-[Sar]RVYCH[Pen]F-OH; disulfide 5-7)", "Kd": "> 10 µM"}
{"compound": "CNCC(=O)N[C@@H](CCCNC(=N)N)C(=O)N[C@H](C(=O)N[C@@H](Cc1ccc(O)cc1)C(=O)N[C@H]1CSS[C@@H]2C[C@@H](C(=O)N[C@@H](Cc3ccccc3)C(=O)O)N(C2)C(=O)[C@H](Cc2cnc[nH]2)NC1=O)C(C)C", "Kd": "> 10 µM"}

Could you now consider this next compound?
// query Item CNCC(=O)N[C@@H](CCCN=C(N)N)C(=O)N[C@H](C(=O)N[C@H](Cc1ccc(O)cc1)C(=O)N[C@@H]1CCC(=O)N[C@@H]2C[C@H](C(=O)N[C@H](Cc3ccccc3)C(=O)O)N(C2)C(=O)[C@@H](Cc2c[nH]cn2)NC1=O)C(C)C has what recorded Kd?
// result > 10 µM
